# System: uterine horns
# protocol-details: Uterine relaxant activity: spontaneous contractions of isolated rat uterine horn fragments
# condition-notes: Rattus norvegicus; reduces magnitude of spontaneous contractions by 50%; read-out: ED50 theophylline (uterine relaxant)
measurement-label: EC50 (µM)
Numeric answer only, unit µM assumed.

## Input Which measured EC50 belongs to Cn1c(=O)c2[nH]cnc2n(C)c1=O [theophylline, reference compound] , tested on uterine horns?
## Output 900

###

# Tested on: right atrium
# protocol-details: Cardiac activity: chronotropic function, isolated spontaneously beating right atrium
# Set-up: species or system guinea pig
# condition-notes: concentration producing 20% increase in rate
measurement-label: ED Theo/ED Product, chronotropic function
Would you mind answering with just the numeric figure?

Worked examples, 3 compounds total:
CNc1nc(Br)cn2ccnc12    25
CCNc1nc(Br)cn2ccnc12    15
CNc1nccn2c(Br)cnc12    6

## Input Find the recorded ED Theo/ED Product, chronotropic function belonging to Nc1nc(Br)cn2ccnc12 [Compound 8, 8-amino-6-bromoimidazo[1,2-a]pyrazine] and report it.
## Output 2
